Tested on: UO-31
Method description: NCI tumour cell line growth inhibition, 48 h
The source made the active and inactive calls. Rule as the data show it: active = GI50 up to about 1.1 µM and inactive = higher.
Answer each item with its documented GI50.

# map each molecule to its GI50
1. CC1(C)CC2(C)CC1CC2O (stereo not given)
2. C#CCN(N=O)C(=O)NC(CCCCNC(=O)OCc1ccccc1)C(=O)OCc1ccccc1 (stereo not given)
3. C#CCCCC(=C)C[C@H](OCc1ccccc1)[C@H]1OC(=O)[C@@H]1C
4. O=C(N/N=C1\C(=O)N(c2nccs2)C(=O)C(=O)C1c1nc2ccccc2s1)c1ccccc1O (stereo not given)
5. Cc1nc2ccccc2nc1-c1ccc(/N=[N+](\[O-])c2ccc(-c3nc4ccccc4nc3C)cc2)cc1

> 100 µM (inactive)
30.8 µM (inactive)
23.9 µM (inactive)
8.22 µM (inactive)
> 81.3 µM (inactive)

----------
Test system: HCC 2998
Method description: NCI tumour cell line growth inhibition, 48 h
Activity calls are given as the source filed them. No stated cut-off is given here; in the data, active = GI50 up to about 1.1 µM and inactive = higher. *1 amine or outer side, *2 acyl side, *3 side chain or, on linkers, in order; H or OH if unused. Where a SMILES comes first, the peptide text is derived from it. Bridges are numbered along the chain shown (N, C = ends). [ ]: non-standard residue; d: D form. The star is where a group is joined. X56 = CC(C)C(C)C(C(=O)[*:2])N(C)[*:1]; Picolinoyl(3-OH) = O=C(c1ncccc1O)*; NMePhg = CN[CH](C(=O)O)c1ccccc1; Hyp = O=C(O)[CH]1C[CH](O)CN1; Sar = CNCC(=O)O
Answer each item with its documented GI50.

Worked cases, GI50 given:
# Molecule, Result
rows = [
    ("COc1ccc2c(c1)[n+]([O-])c(/C(C)=N/NC(N)=S)c(C)[n+]2[O-]", "20.5 µM (inactive)"),
    ("CCC1(O)C[C@H]2CN(CCCc3c([nH]c4ccccc34)[C@@](C(=O)OC)(c3cc4c(cc3OC)N(C)C3[C@](O)(C(=O)OC)[C@H](OC(C)=O)[C@]5(CC)C=CCN6CC[C@]43[C@H]65)C2)C1 (some centres undefined)", "1.75 µM (inactive)"),
    ("C#CCCCC(=C)C[C@H](OCc1ccccc1)[C@H]1OC(=O)[C@@H]1C", "> 100 µM (inactive)"),
]

# map each molecule to its GI50
1. OCCN(CCO)c1ncnc2[nH]cnc12
2. CC(C)CC1NC(=O)C(NC(=O)c2ncccc2O)C(C)OC(=O)C(c2ccccc2)N(C)C(=O)C(C)NC(=O)C(C(C)C(C)C)N(C)C(=O)CN(C)C(=O)C2CC(O)CN2C1=O (centres undefined) ({Picolinoyl(3-OH)}-TL[Hyp][Sar][X56]A[NMePhg]; ester 1-C; configuration not given here)
3. CCCCOC(=O)C(=O)C(CC(C(=O)Cc1ccccc1)c1ccccc1)C(=O)C=C(C)C (centres undefined)
4. O=c1o[nH]/c(=N/c2ccccc2)n1-c1ccccc1

["> 100 µM (inactive)", "78.7 µM (inactive)", "> 100 µM (inactive)", "93.3 µM (inactive)"]

# map each molecule to its GI50
1. CN=[S+]([O-])(c1ccccc1)c1ccccc1
2. NNC(=O)/C(NC(=O)c1ccccc1)=C(\N)c1cccc([N+](=O)[O-])c1
3. CN(NC(=O)c1ccc(Cl)cc1)C1=NCCCCN1
4. COc1ccccc1/C=C1/Sc2scc(CC(=O)Nc3ccccc3)[n+]2C1=O
5. O=C(COc1ccccc1Cl)N1N=C(c2ccccc2)CC1(O)c1ccccc1 (centres undefined)
6. Cn1nnc2c(C(N)=S)ncn2c1=O
7. COC(=O)Nc1nc2ccc(S(=O)(=O)SC)cc2[nH]1
8. O=C(Cc1ccccc1)NCCc1ccc(O)c(O)c1

> 100 µM (inactive)
> 100 µM (inactive)
> 100 µM (inactive)
30.8 µM (inactive)
15.9 µM (inactive)
> 100 µM (inactive)
10.4 µM (inactive)
> 100 µM (inactive)

# map each molecule to its GI50
1. CC1=C(C)C(=O)c2c(cc3ccccn23)C1=O
2. COc1ccc(NC(=O)C(=O)C(CC2C(=O)NC(=S)NC2=O)C(=O)c2ccc3ccccc3c2)c([N+](=O)[O-])c1 (centres undefined)
3. Nc1ccc(OCC(O)N2C(=O)c3ccccc3C2=O)cc1 (centres undefined)

["15.5 µM (inactive)", "> 100 µM (inactive)", "> 100 µM (inactive)"]

I am curious: what GI50 value has been reported for CCc1cccc(C(C)CC)c1NC(=O)C(=O)Cc1nc2ccccc2o1 (centres undefined) ?
> 50 µM (inactive)
